Biological target: T1, human OT7T175 (metastin receptor) (human, UniProt Q969F8 1-398)
T1 construct: expressed on CHO cells (hOT7T175-expressed CHO cells; hOT7T175/CHO); also called hOT7T175; h0T7T175
T1 sequence (Q969F8 whole entry L364H): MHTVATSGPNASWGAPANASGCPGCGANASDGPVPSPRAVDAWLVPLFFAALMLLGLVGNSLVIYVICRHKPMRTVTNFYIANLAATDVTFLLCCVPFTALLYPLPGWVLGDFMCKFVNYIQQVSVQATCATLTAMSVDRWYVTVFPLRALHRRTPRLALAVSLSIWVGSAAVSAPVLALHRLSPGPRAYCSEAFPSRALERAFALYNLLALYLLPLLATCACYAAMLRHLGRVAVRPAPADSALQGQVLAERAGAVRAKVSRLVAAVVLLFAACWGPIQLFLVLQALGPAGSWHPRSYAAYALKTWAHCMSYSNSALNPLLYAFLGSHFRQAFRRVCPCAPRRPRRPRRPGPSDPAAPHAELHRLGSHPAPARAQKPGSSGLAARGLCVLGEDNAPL
Assay: FMAT competition with Cy-5-labeled metastin (40-54), hOT7T175-expressed CHO cells
Square brackets hold non-standard residues; d marks the D form. Ends that are not written are not given here. Arg(Me) = CNC(=N)NCCC[C@H](N)C(=O)O; Cha = N[C@@H](CC1CCCCC1)C(=O)O; azaGly = NNC(=O)O
Entries and their log10 IC50 values follow.
Please note: log10 values; quantity IC50; unit nM.

{"binder": "[dY]N[Cha]NSF[azaGly]L[Arg(Me)]F-NH2 (N-terminus assumed; SMILES CNC(=N)NCCC[C@H](NC(=O)[C@H](CC(C)C)NC(=O)NNC(=O)[C@H](Cc1ccccc1)NC(=O)[C@H](CO)NC(=O)[C@H](CC(N)=O)NC(=O)[C@H](CC1CCCCC1)NC(=O)[C@H](CC(N)=O)NC(=O)[C@H](N)Cc1ccc(O)cc1)C(=O)N[C@@H](Cc1ccccc1)C(N)=O) [Compound No. 190: [D-Tyr1,Cha3,AzaGly7,Arg(Me)9]MS10]", "log10 IC50": 1.08}
{"binder": "YNWNSFGXRF (Nle8; C-terminal amide) [Compound No. 105: [Nle8]MS10]", "log10 IC50": 2.94}
{"binder": "[dY]NWNTFGL[Arg(Me)]F-NH2 (N-terminus assumed; SMILES CNC(=N)NCCC[C@H](NC(=O)[C@H](CC(C)C)NC(=O)CNC(=O)[C@H](Cc1ccccc1)NC(=O)[C@@H](NC(=O)[C@H](CC(N)=O)NC(=O)[C@H](Cc1c[nH]c2ccccc12)NC(=O)[C@H](CC(N)=O)NC(=O)[C@H](N)Cc1ccc(O)cc1)[C@@H](C)O)C(=O)N[C@@H](Cc1ccccc1)C(N)=O) [Compound No. 211: [D-Tyr1,Thr5,Arg(Me)9]MS10]", "log10 IC50": 1.64}
{"binder": "YNWNSFGLRX (Cha10; C-terminal amide) [Compound No. 112: [Cha10]MS10]", "log10 IC50": 2.57}

Problem: GET /values?readout=log10 IC50&item= YNWNSXGLRF (D-Tyr1; Pya(2)6; Arg(Me)9; C-terminal amide) [Compound No. 281: [D-Tyr1,Pya(2)6,Arg(Me)9]MS10]
Result: 2.36
